Test system: recombinant HIV-1 10I 48V 54V 82A
Test: microbe, parasite or virus in culture
Assay type: cell-based
Conditions: Human immunodeficiency virus 1, MT4, read-out: Cell-based assay (MT-4) EC50/nM 48V 54V 82A
metric_name: EC50 (nM)

| molecule | unit_symbol | readout_relation | readout_number |
| --- | --- | --- | --- |
| CCOP(=O)(COc1ccc(CC2C(O)C(O)C(Cc3ccccc3)N(Cc3ccc(O)cc3)C(=O)N2Cc2ccc(O)cc2)cc1)OCC (stereo not shown) | nM | = | 128 |
| O=C1N(Cc2ccccc2)C(Cc2ccccc2)C(O)C(O)C(Cc2ccc(O)cc2)N1Cc1ccccc1 (stereo not shown) | nM | > | 6000 |
| CCOP(=O)(COc1ccc(CC2C(O)C(O)C(Cc3ccc(OC)cc3)N(Cc3ccc(O)cc3)C(=O)N2Cc2ccc(O)cc2)cc1)OCC (stereo not shown) | nM | = | 70 |
| O=C1N(Cc2ccccc2)C(Cc2ccccc2)C(O)C(O)C(Cc2ccc(OCP(=O)(OCc3ccccc3)OCc3ccccc3)cc2)N1Cc1ccccc1 (stereo not shown) | nM | > | 6000 |
